Test system: giant foxtail (Setaria faberi)
TEST_DESCRIPTION: Test A pre/postemergence
Format: in vivo
DETAILS: Preemergence, 500 g ai/ha; 0 to 100 scale where 0 is no effect and 100 is complete control; approximately ten days
PARAMETER: Plant response rating, Foxtail, Giant
Respond numerically, and do not add a unit to the figure.

QUERY: Bench note: what Plant response rating, Foxtail, Giant did CS(=O)(=O)NC(=O)c1nc(-c2ccc(Cl)cc2)nc(N)c1Cl show?
RESULT: 0

QUERY: What does the record list as Plant response rating, Foxtail, Giant for CCOC(=O)c1nc(-c2ccc(C)c(C)c2)nc(N)c1Br ?
RESULT: 5

QUERY: Bench note: what Plant response rating, Foxtail, Giant did COCCOCCOC(=O)c1nc(C2CC2)nc(N)c1Cl show?
RESULT: 85

QUERY: Which value of Plant response rating, Foxtail, Giant has been reported for CC(C)=NOC(=O)c1nc(C2CC2)nc(N)c1Cl in the records?
RESULT: 90

QUERY: State the recorded Plant response rating, Foxtail, Giant for this entry: COC(=O)c1nc(-c2ccc(C)c(F)c2)nc(N)c1Cl
RESULT: 0

QUERY: Any idea what its Plant response rating, Foxtail, Giant is? The molecule is CCOC(=O)C(O)c1nc(C2CC2)nc(N)c1Br (stereo not drawn)
RESULT: 10

QUERY: Can you look up the measured Plant response rating, Foxtail, Giant of CCOC(=O)c1nc(-c2ccc(C)c(C)c2)nc(N)c1Cl for me?
RESULT: 0

QUERY: Query (molecule): Nc1nc(-c2ccc(F)cc2)nc(C(=O)O)c1Cl ; field requested: Plant response rating, Foxtail, Giant
RESULT: 15

QUERY: Name the recorded Plant response rating, Foxtail, Giant for CCCOC(=O)c1nc(C2CC2)nc(N)c1Cl .
RESULT: 90

QUERY: # query: Plant response rating, Foxtail, Giant of entry COC(=O)c1nc(-c2cccc(C)c2)nc(N)c1Cl
RESULT: 5

QUERY: I have this molecule here, CCOC(=O)c1nc(-c2ccc(CC)cc2)nc(N)c1Cl , and I need its recorded Plant response rating, Foxtail, Giant.
RESULT: 0

QUERY: Query (molecule): COC(=O)c1nc(-c2ccc(C)cc2)nc(N)c1Br ; field requested: Plant response rating, Foxtail, Giant
RESULT: 0

QUERY: Entry Nc1nc(C2CC2)nc(C(=O)OCC2COC(=O)O2)c1Cl (stereo not drawn) : reported Plant response rating, Foxtail, Giant = ?
RESULT: 90

QUERY: Sample Nc1nc(C2CC2)nc(C(=O)OCCCO)c1Cl — what was its Plant response rating, Foxtail, Giant?
RESULT: 75

QUERY: Fill blank: measured Plant response rating, Foxtail, Giant of the molecule Nc1nc(C2CC2)nc(OCC(=O)[O-])c1Cl.[Na+] is ____.
RESULT: 0

QUERY: Report Plant response rating, Foxtail, Giant for CCOC(=O)Cc1nc(-c2ccc(Cl)cc2)nc(N)c1Cl please.
RESULT: 0

QUERY: Given the molecule CCOC(=O)c1nc(-c2ccc(Cl)cc2Cl)nc(N)c1Cl , what is its reported Plant response rating, Foxtail, Giant?
RESULT: 0

QUERY: Tell me the measured Plant response rating, Foxtail, Giant of CCOC(=O)c1nc(-c2ccc(OC)cc2)nc(N)c1Cl , please.
RESULT: 0
